experiment.notes: supercomplex reporter luminescence per Hoechst cell count – Hoechst nuclei count (AID 1645838);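 also: control cybrid cells; higher means more mitochondrial supercomplex formation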
assay.context: Cells, luminescence/Hoechst cell count ratio, library stock concentration (final well concentration not given) 10 mM
The campaign covered roughly 2,000 compounds. About 100 (5%) were called active. Rule as the data show it: active = z-score above about 2; inactive = the rest. The sample holds actives, similar compounds and a random draw of the others, so the mix is not that of the screen.
// classify into YES (active), NO (inactive)

compound=Cc1ccc(C(=O)NCCCCCC(=O)Nc2ccccc2N)cc1 class_label=YES
compound=c1ccc(Nc2nc3c(s2)CCCc2[nH]ncc2-3)nc1 class_label=NO
compound=CCOC(=O)NCCCC(=O)NCCc1ccccc1 class_label=NO
compound=Cc1nc(Nc2ncc(C(=O)Nc3c(C)cccc3Cl)s2)cc(N2CCN(CCO)CC2)n1 class_label=YES

Data request: What outcome does the record of this test show for Cc1cc(N2CCOCC2)ccc1Nc1nc(NC2CCCCC2)c2[nH]cnc2n1 ?
Data returned: YES
